target: UniProtKB C7C422; assay: Enzyme activity: determination of IC50, fluorescence assay with CCF2-FA substrate; assay type: biochemical; conditions: enzyme 1 pM, CCF2-FA 1.25 μM, 2 hours at 25° C.; read-out: NDM1 IC50
Sequence (C7C422 29-270, looked up, species assumed): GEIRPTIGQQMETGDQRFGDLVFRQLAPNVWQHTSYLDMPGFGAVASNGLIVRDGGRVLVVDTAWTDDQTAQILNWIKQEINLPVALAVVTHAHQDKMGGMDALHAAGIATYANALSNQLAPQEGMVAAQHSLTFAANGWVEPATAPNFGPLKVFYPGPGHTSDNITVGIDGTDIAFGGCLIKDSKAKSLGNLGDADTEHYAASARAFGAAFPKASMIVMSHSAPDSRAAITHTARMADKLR
pIC50: −log10 of the molar value.
# pIC50 values compiled below
ASSAY ENDPOINT: pIC50

1. CC(C)C[C@H](C(=O)O)[C@H](Cc1ccc(C2CCNCC2)nc1)c1nnn[nH]1 ... 6.82
2. CCC[C@H](C(=O)O)[C@H](Cc1ccc(-c2ccc3c(c2)CNCC3)cc1)c1nnn[nH]1 ... 7.00
3. CCC[C@H](C(=O)O)[C@H](Cc1ccc(-c2ccc(CO)cc2)cc1)c1nn[nH]n1 ... 7.92
4. Nc1ccc(-c2ccc(C[C@H](c3nnn[nH]3)[C@@H](C(=O)O)C3CCCC3)cc2)cn1 ... 8.25
5. Cc1cc(C[C@H](c2nnn[nH]2)[C@@H](C(=O)O)C(C)C)ccc1C1CCNC1 (stereo partly shown) ... 7.62
6. CCC[C@H](C(=O)O)[C@H](Cc1ccc(NC)cn1)c1nnn[nH]1 ... 6.52
7. CCC[C@H](C(=O)O)[C@H](Cc1ccc(-c2cnc(N3CCCCC3)s2)cc1)c1nn[nH]n1 ... 8.47
8. CCCC[C@@H](C(=O)O)[C@@H](Cc1ccc(-c2ccccc2)cc1)c1nn[nH]n1 ... 6.19
9. CC(C)[C@H](C(=O)O)[C@H](Cc1ccc(C2CCNC2)nc1)c1nnn[nH]1 (stereo partly shown) ... 6.77
10. CCCC[C@@H](C(=O)O)[C@@H](Cc1ccc(-c2cnn(-c3ccccc3)c2)cc1)c1nn[nH]n1 ... 6.01
11. CC(C)C[C@H](C(=O)O)[C@H](Cc1cc(F)cc(Br)c1)c1nnn[nH]1 ... 7.74
12. CC(C)C[C@H](C(=O)O)[C@H](Cc1ccc(-c2ccnc(N)c2)nc1)c1nn[nH]n1 ... 7.37
13. CC(C)C[C@H](C(=O)O)[C@H](Cc1ccc(-c2ccc3c(c2)OCC(=O)N3)nc1)c1nn[nH]n1 ... 7.77
14. O=C(O)[C@@H](CCCC1CCNCC1)[C@H](Cc1ccccc1)c1nnn[nH]1 ... 7.52
15. CCC[C@H](C(=O)O)[C@H](Cc1ccc(Br)nc1)c1nnn[nH]1 ... 7.28
16. CCC[C@H](C(=O)O)[C@H](Cc1ccc(-c2cnc(N(C)C)nc2)nc1)c1nnn[nH]1 ... 7.60

----------
test system: Klebsiella pneumoniae expressing VIM-1 (IHMA599644); experiment: Antibiotic potentiation activity: synergistic concentration (MITC95) with imipenem, growth by OD600; type: cell-based; conditions: 95% inhibition of bacterial growth, strain IHMA599644
Our labelling divides records by VIM1 KP599644 MITC95 into ranges: A (below 20 µM), B (20 µM to below 40 µM), C (40 µM or more)

1. CC(C)[C@H](C(=O)O)[C@H](Cc1csc(C2=CCNC2)n1)c1nnn[nH]1 ... B
2. Cc1ccc(C[C@H](c2nn[nH]n2)[C@H](CC(C)C)C(=O)O)cc1 ... C
3. CC(C)C[C@H](C(=O)O)[C@@H](c1nnn[nH]1)[C@H](C)c1ccccc1 ... B
4. CC(C)[C@H](C(=O)O)[C@H](Cc1ccc(C2CCNCC2)nc1)c1nnn[nH]1 ... A
5. CC(C)C[C@H](C(=O)O)[C@H](Cc1ccc(-c2ccc(CO)cc2)nc1)c1nn[nH]n1 ... B
6. CCC[C@H](C(=O)O)[C@H](Cc1ccc(C2=CCNCC2)cn1)c1nnn[nH]1 ... B
7. CCC[C@H](C(=O)O)[C@H](Cc1ccc(N)nc1)c1nnn[nH]1 ... A
8. CC(C)C[C@H](C(=O)O)[C@H](Cc1ccc2ncc(N)cc2c1)c1nnn[nH]1 ... B
9. CCC[C@H](C(=O)O)[C@H](Cc1ccc(NCc2cc(OC)cc(OC)c2)nc1)c1nnn[nH]1 ... C
10. CCC[C@H](C(=O)O)[C@H](Cc1cnc(N2CCNCC2)s1)c1nnn[nH]1 ... B
11. CCCC[C@@H](C(=O)O)[C@@H](Cc1ccc(-c2cnn(-c3ccccc3)c2)cc1)c1nn[nH]n1 ... C
12. CCC[C@H](C(=O)O)[C@H](Cc1ccc(-c2ccc3c(c2)CCNC3)cc1)c1nnn[nH]1 ... B
13. N#CCCCC[C@H](C(=O)O)[C@H](Cc1ccccc1)c1nnn[nH]1 ... C
14. CC(C)[C@H](C(=O)O)[C@H](Cc1ccc(C2CCNC2)nc1)c1nnn[nH]1 (stereo partly shown) ... A
15. CC(C)CC(C(=O)O)[C@H](Cc1ccc(S(C)(=O)=O)cc1)c1nn[nH]n1 (stereo partly shown) ... C
16. C[C@@H](c1ccccc1)[C@H](c1nnn[nH]1)[C@H](CCF)C(=O)O ... C

----------
molecular target: IMP-1 (Serratia marcescens); assay: Enzyme activity: determination of IC50, fluorescence assay with CCF2-FA substrate; type: biochemical; conditions: enzyme 2 pM, CCF2-FA 1.25 μM, 2 hours at 25° C.; read-out: IMP1 IC50
Sequence (P52699 19-246, looked up, species assumed): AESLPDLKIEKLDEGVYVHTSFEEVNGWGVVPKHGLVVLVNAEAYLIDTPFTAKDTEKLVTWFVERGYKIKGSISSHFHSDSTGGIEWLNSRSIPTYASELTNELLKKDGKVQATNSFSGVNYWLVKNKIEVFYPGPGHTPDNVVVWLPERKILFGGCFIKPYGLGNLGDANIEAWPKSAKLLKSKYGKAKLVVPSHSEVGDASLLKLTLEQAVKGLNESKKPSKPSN
pIC50: −log10 of the molar value.
Classification field: enter Y for pIC50 values not below 6, N for values below it.

1. CC(C)[C@H](C(=O)O)[C@H](Cc1ccc(C2CCNC2)nc1)c1nnn[nH]1 (some centres unmarked) ... N
2. CC(C)[C@H](C(=O)O)[C@H](Cc1cccc(Br)n1)c1nnn[nH]1 ... N
3. CC(C)[C@H](C(=O)O)[C@H](Cc1ccc(C2=CCNC2)cn1)c1nnn[nH]1 ... N
4. CCC[C@H](C(=O)O)[C@H](Cc1cccnc1Cl)c1nnn[nH]1 ... N
5. CC(C)C[C@H](C(=O)O)[C@H](Cc1cnc(NCCO)s1)c1nnn[nH]1 ... Y
6. CC(C)C[C@H](C(=O)O)[C@H](Cc1ccc(N2CCNCC2)c(F)c1)c1nn[nH]n1 ... Y
7. CCC[C@H](C(=O)O)[C@H](Cc1ccccc1C(N)=O)c1nnn[nH]1 ... N
8. CCCC(C)[C@H](C(=O)O)[C@H](Cc1ccccc1)c1nnn[nH]1 (some centres unmarked) ... Y
9. N#CCCCC[C@H](C(=O)O)[C@H](Cc1ccccc1)c1nnn[nH]1 ... N
10. CCC[C@H](C(=O)O)[C@H](Cc1ccc(-c2cnc(N(C)S(C)(=O)=O)nc2)cc1)c1nnn[nH]1 ... Y
11. CCC[C@H](C(=O)O)[C@H](Cc1ccccn1)c1nn[nH]n1 ... N
12. CC(C)C[C@H](C(=O)O)[C@H](Cc1ccc(Br)cc1)c1nnn[nH]1 ... Y
13. CCC[C@H](C(=O)O)[C@H](Cc1ccc(NCCN2CCOCC2)cc1)c1nn[nH]n1 ... Y
14. CCC[C@H](C(=O)O)[C@H](Cc1ccc(-c2cnc(N(C)C)nc2)nc1)c1nnn[nH]1 ... Y
15. CC(C)CC(C(=O)O)[C@H](Cc1ccc(S(C)(=O)=O)cc1)c1nn[nH]n1 (some centres unmarked) ... Y
16. CC(C)[C@H](C(=O)O)[C@H](Cc1ccc(NCCO)cn1)c1nnn[nH]1 ... N
17. O=C(O)[C@@H](CCCC1CCNCC1)[C@H](Cc1ccccc1)c1nnn[nH]1 ... N

----------
# maps each entry to its pIC50
target: VIM-1 (Pseudomonas aeruginosa, UniProt A0A0F7KYQ8); experiment: Enzyme activity: determination of IC50, fluorescence assay with CCF2-FA substrate; type: biochemical; conditions: VIM-1 enzyme 30 pM, CCF2-FA 1.25 μM, 2 hours at 25° C.; read-out: VIM1 IC50
pIC50: −log10 of the molar value.
ASSAY ENDPOINT: pIC50

1) CC(C)C[C@H](C(=O)O)[C@H](Cc1ccc(N2CC3(CNC(=O)C3)C2)nc1)c1nnn[nH]1 [Example 328] ... 7.92
2) CCC[C@H](C(=O)O)[C@H](Cc1ccccc1-c1ccc(NS(C)(=O)=O)cc1)c1nn[nH]n1 [Example 402] ... 8.82
3) CCC[C@H](C(=O)O)[C@H](Cc1ccc(C2CCN(C(=N)N)C2)nc1)c1nnn[nH]1 (some centres unmarked) [Example 411] ... 8.53
4) CCC[C@H](C(=O)[O-])[C@H](Cc1ccc(C2CC[N+](C)(C)CC2)nc1)c1nnn[nH]1 [Example 291] ... 6.92
5) CCC[C@H](C(=O)O)[C@H](Cc1ccc(COCCN2CCOCC2)cc1)c1nn[nH]n1 [Example 252] ... 7.05
6) CC(C)C[C@H](C(=O)O)[C@H](Cc1ccc(N2CCCC2)nc1)c1nnn[nH]1 [Example 304] ... 8.11
7) CCC[C@H](C(=O)O)[C@H](Cc1ccc(C2CCN(C=N)CC2)nc1)c1nnn[nH]1 [Example 299] ... 7.66
8) CCC[C@H](C(=O)O)[C@H](Cc1ccc(C2CCN(C=N)CC2)cc1)c1nnn[nH]1 [Example 297] ... 7.60

Measured values drawn from patent US9839642B2 for this set.
